This section presents binders with their documented OD450 values.
# experimental-target: T1, human MSLN-R3-his protein (human, UniProt Q13421 487-598)
# T1 construct: Region 3 of human mesothelin, made in HEK293E cells, His-tagged; also called human MSLN-R3 protein; hMSLN-R3-his; not shown: His tag
# T1 sequence (Q13421 495-606): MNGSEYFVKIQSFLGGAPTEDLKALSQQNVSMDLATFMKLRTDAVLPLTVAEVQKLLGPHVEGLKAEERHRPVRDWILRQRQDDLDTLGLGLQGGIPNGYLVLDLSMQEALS
# assay-name: ELISA on coated MSLN-R3; antibody 0.001 nM
Your answer is read as OD450, so omit the unit and give the number.

| binder | unit-annotation | OD450 |
| --- | --- | --- |
| S009-F8-4.5 (antibody, human IgG1, kappa, V domains shown) VH: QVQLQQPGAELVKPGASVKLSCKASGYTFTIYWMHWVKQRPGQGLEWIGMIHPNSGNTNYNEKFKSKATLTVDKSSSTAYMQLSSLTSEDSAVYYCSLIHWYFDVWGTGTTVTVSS VL: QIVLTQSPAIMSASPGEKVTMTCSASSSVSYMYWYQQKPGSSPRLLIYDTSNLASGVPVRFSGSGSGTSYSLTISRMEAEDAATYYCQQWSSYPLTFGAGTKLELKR | OD450 | 0.05 |
| S009-F8-15.19 (antibody, human IgG1, kappa, V domains shown) VH: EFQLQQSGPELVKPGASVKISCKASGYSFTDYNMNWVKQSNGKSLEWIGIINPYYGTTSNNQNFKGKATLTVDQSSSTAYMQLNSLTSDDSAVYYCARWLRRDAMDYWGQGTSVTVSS VL: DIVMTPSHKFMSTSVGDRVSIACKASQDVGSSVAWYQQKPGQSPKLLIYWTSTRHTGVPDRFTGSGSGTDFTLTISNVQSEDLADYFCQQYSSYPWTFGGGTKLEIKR | OD450 | 0.04 |
| S009-F8-29.1 (antibody, human IgG1, kappa, V domains shown) VH: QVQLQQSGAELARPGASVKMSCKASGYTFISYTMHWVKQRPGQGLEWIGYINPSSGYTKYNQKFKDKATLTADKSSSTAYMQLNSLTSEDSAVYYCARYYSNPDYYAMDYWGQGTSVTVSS VL: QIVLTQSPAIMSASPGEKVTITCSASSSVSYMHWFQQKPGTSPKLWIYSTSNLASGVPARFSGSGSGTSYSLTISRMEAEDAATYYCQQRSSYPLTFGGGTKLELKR | OD450 | 0.15 |

Recorded OD450 of S009-F8-31.22 (antibody, human IgG1, kappa, V domains shown) VH: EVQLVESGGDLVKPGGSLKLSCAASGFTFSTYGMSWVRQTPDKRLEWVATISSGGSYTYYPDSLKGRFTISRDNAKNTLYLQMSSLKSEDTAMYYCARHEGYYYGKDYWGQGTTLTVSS VL: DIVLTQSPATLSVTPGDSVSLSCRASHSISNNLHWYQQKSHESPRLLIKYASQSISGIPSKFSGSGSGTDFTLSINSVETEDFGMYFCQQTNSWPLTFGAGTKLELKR , please. 0.04
